Listed next: entries and their corresponding inhibition.
molecular target: Protein AF-9 (Homo sapiens) (UniProt P42568); experiment: MLL-AF4/AF9 protein interaction blockers – biochemical, AlphaScreen, biotin-AF4 peptide, FLAG-AF9, single point, primary screen (AID 651704); settings: biotin-AF4 peptide binding to FLAG-AF9, at 10 µM, active compounds read high;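 note: 0% = plate neutral control median and 100% = total signal loss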
Sequence (P42568 whole entry, looked up): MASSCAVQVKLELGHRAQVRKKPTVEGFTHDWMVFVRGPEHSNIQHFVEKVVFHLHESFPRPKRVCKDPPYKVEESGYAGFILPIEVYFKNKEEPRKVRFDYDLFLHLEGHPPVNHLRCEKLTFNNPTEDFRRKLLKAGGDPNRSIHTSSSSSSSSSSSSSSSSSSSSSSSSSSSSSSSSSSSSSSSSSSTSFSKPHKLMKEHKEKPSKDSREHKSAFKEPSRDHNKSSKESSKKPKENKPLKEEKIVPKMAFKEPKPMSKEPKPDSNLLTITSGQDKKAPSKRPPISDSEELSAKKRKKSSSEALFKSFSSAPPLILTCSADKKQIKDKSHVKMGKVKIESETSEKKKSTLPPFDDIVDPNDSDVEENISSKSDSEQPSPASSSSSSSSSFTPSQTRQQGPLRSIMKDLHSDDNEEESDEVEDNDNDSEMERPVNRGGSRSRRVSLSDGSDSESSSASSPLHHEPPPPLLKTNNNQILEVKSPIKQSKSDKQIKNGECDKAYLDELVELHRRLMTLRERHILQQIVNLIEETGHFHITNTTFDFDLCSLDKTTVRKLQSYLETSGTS
The campaign covered roughly 350,000 compounds. About 1,600 (0.46%) were called active. The sample as a whole holds a higher share of actives than the screen did.
Answer with a number only, understood to be in %.

// below: answered compounds
smiles_representation=CO[C@@H]1CN(C)C(=O)c2ccc(NC(=O)C3CCCC3)cc2OC[C@H](C)NC[C@@H]1C measured=-0.502
smiles_representation=C[C@H](CO)N1C[C@H](C)[C@H](CN(C)Cc2ccccc2)OCCCC[C@H](C)Oc2ccc(NC(=O)Cc3ccccc3)cc2C1=O measured=3.76
smiles_representation=CN(C)C(=O)C[C@H]1C=C[C@@H](NC(=O)c2ccc(F)cc2)[C@@H](CO)O1 measured=-2.41

Proceeding to the next compound to report its inhibition.
inhibition recorded for this compound, `Cc1ccc(S(=O)(=O)Nc2ccc3c(c2)C(=O)N([C@H](C)CO)C[C@@H](C)[C@@H](CN(C)C(=O)CCC(F)(F)F)OCCCC[C@@H](C)O3)cc1` , is -0.265

----------
target: Protein AF-9 (Homo sapiens); test: MLL-AF4/AF9 protein interaction blockers – biochemical, AlphaScreen, biotin-AF4 peptide, FLAG-AF9, single point, primary screen (AID 651704); details: biotin-AF4 peptide binding to FLAG-AF9, at 10 µM, active compounds read high;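 note: 0% = plate neutral control median and 100% = total signal loss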
Screen size: about 350,000 compounds; about 1,600 (0.46%) were called active. The full list was thinned out, with actives kept by preference.
recorded.endpoint: inhibition (%)
Supply the numeric figure in %, leaving out any unit text.

compound="CC(=O)c1ccc(OCC(O)CN2CCN(S(=O)(=O)c3cccc(Br)c3)CC2)cc1 (centres undefined)" system="Protein AF-9 (Homo sapiens)" recorded_endpoint=inhibition measured=0.541
compound=COc1ccccc1C#Cc1ccc([C@@H]2[C@H](CO)N3CCCCN(C(=O)C4CCCC4)C[C@@H]23)cc1 system="Protein AF-9 (Homo sapiens)" recorded_endpoint=inhibition measured=6.51
compound=C[C@@H]1CCCCO[C@H](CN(C)C(=O)Nc2ccc(C(F)(F)F)cc2)[C@@H](C)CN([C@@H](C)CO)C(=O)c2cc(NS(=O)(=O)c3cccs3)ccc2O1 system="Protein AF-9 (Homo sapiens)" recorded_endpoint=inhibition measured=2.48

For reference, reported inhibition for `CO[C@@H]1CN(C)C(=O)c2cc(NC(C)=O)ccc2OC[C@H](C)N(Cc2ccccn2)C[C@H]1C` stands at -0.12

----------
molecular target: Protein AF-9 (Homo sapiens); assay: MLL-AF4/AF9 protein interaction blockers – biochemical, AlphaScreen, biotin-AF4 peptide, FLAG-AF9, single point, primary screen (AID 651704); conditions: biotin-AF4 peptide binding to FLAG-AF9, at 10 µM, active compounds read high;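 note: 0% = plate neutral control median and 100% = total signal loss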
Out of some 350,000 compounds screened, about 1,600 (0.46%) were called active. Shown is part of a subset that was picked to be rich in actives.
recorded.endpoint: inhibition (%)
Lab book: enter the figure in %, no units written.

Query `C/C=C/c1ccc([C@@H]2[C@H](CO)N(CC3CCCC3)C23CN(C(=O)CC2CC2)C3)cc1` yields inhibition of 5.28

Quick note, inhibition for `Cc1noc(C)c1NC(=O)N(C)C[C@@H]1OCCCC[C@H](C)Oc2ccc(NC(=O)NC3CCCCC3)cc2C(=O)N([C@H](C)CO)C[C@H]1C` landed at -0.856

# compound `C[C@@H]1CN([C@@H](C)CO)C(=O)c2cc(-c3ccc(F)cc3)cnc2O[C@@H]1CN(C)Cc1ccc(C(=O)O)cc1` ; its inhibition = -2.45

Quick note, inhibition for `C/C=C/c1ccccc1[C@@H]1[C@@H](C#N)N(C(=O)Cc2ccccn2)[C@H]1CO` landed at 0.68

Please fill in: inhibition reported for `CCCNC(=O)N1CCC2(CC1)CN(Cc1ccccc1)[C@H](CO)c1[nH]c3cc(OC)ccc3c12` = 1.99

----------
inhibition listing for selected compounds.
molecular target: Protein AF-9 (Homo sapiens); assay: MLL-AF4/AF9 protein interaction blockers – biochemical, AlphaScreen, biotin-AF4 peptide, FLAG-AF9, single point, primary screen (AID 651704); conditions: biotin-AF4 peptide binding to FLAG-AF9, at 10 µM, active compounds read high;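 note: 0% = plate neutral control median and 100% = total signal loss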
About 1,600 (0.46%) of roughly 350,000 compounds were called active. The list comes from a sample in which actives are over-represented; it also holds close analogues and randomly drawn compounds.
# output: bare number, implied unit %

Record excerpt, results attached:
smiles_representation=CCS(=O)(=O)N1CCC(N2CCN(c3ccccc3)CC2)CC1 quantity_unit=% measured=-4.72
smiles_representation=CN1CCC(CN)(N2CCN(c3ccccc3)CC2)CC1 quantity_unit=% measured=33.8
smiles_representation=COc1ccccc1NC(=O)N1CC(=O)N2[C@H](CO)[C@@H](c3ccc(C#Cc4ccc(F)cc4)cc3)[C@H]2C1 quantity_unit=% measured=2.6
smiles_representation=O=C(c1ccccc1)c1ccc(C(=O)N2CCN(c3ccccc3)CC2)cc1 quantity_unit=% measured=-1.66
smiles_representation=COc1ccc(-n2nnnc2SCC(=O)c2ccc(OC)c(OC)c2)cc1 quantity_unit=% measured=-42.4
smiles_representation=CC(C)CC#Cc1ccc([C@@H]2[C@@H](CO)N3C(=O)CN(C(=O)Nc4ccc(F)cc4)C[C@H]23)cc1 quantity_unit=% measured=5.86

Reported inhibition ( `CN(C)c1ccc(Nc2c3c4c(cccc4n(C)c2=O)C(=O)c2ccccc2-3)cc1` ) = 64.1

----------
target: Protein AF-9 (Homo sapiens) (UniProt P42568); test: MLL-AF4/AF9 protein interaction blockers – biochemical, AlphaScreen, biotin-AF4 peptide, FLAG-AF9, single point, primary screen (AID 651704); details: biotin-AF4 peptide binding to FLAG-AF9, at 10 µM, active compounds read high;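 note: 0% = plate neutral control median and 100% = total signal loss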
The whole screen tested about 350,000 compounds, of which about 1,600 (0.46%) were called active. The sample as a whole holds a higher share of actives than the screen did.
Parameter inhibition: see the listing below.
Please respond with the number in % and leave the unit unwritten.

compound="Cc1cc2c(cc1C)NC1(C[C@H]3CCC(=O)N4CC[C@@H](C1)[C@@H]34)C(=NC(C)(C)CC(C)(C)C)N2 (stereo partly drawn)" measured=54.9

Value sought: inhibition, system Protein AF-9 (Homo sapiens) (UniProt P42568), item `CCC(=O)N1[C@@H](CO)[C@@H](c2ccccc2)C12CN(C(=O)c1cnccn1)C2` . Result: -4.68

Hey, Protein AF-9 (Homo sapiens) (UniProt P42568) data for `CCCC#Cc1ccc([C@H]2[C@@H](CO)N3C(=O)CN(C(=O)c4ccncc4)C[C@H]23)cc1` : inhibition came out at -2.78

The compound CC(C)=CCCC1(C)C=Cc2c(ccc3c2[nH]c2cc(O)c(C)cc23)O1 (stereo not drawn) on Protein AF-9 (Homo sapiens) (UniProt P42568): inhibition was 26.9

Observed inhibition on Protein AF-9 (Homo sapiens) (UniProt P42568), entry `Oc1c(CN2CCN(c3ccc(F)cc3)CC2)cc(Cl)c2cccnc12` , equals 41.3

Recorded inhibition for `CN(C)C(=O)c1ccc(-c2ccccc2[C@@H]2[C@@H](C#N)N(C(=O)C3CCCC3)[C@H]2CO)cc1` on Protein AF-9 (Homo sapiens) (UniProt P42568) was -1.75

# `Cc1ccc(CN2CCN(c3ncccn3)CC2)c(C)c1` with Protein AF-9 (Homo sapiens) (UniProt P42568): inhibition is -1.37

Item `C[C@H](CO)N1C[C@H](C)[C@@H](CN(C)Cc2ccc(Oc3ccccc3)cc2)Oc2ccc(NS(=O)(=O)c3ccc(F)cc3)cc2CC1=O` was tested on Protein AF-9 (Homo sapiens) (UniProt P42568); the reported inhibition is 1.77

Entry O=C(CNC(=O)OCc1ccccc1)NC1CCCCNC1=O (stereo not drawn) under Protein AF-9 (Homo sapiens) (UniProt P42568) had inhibition of 48

Record for `CC(C)C#Cc1ccc([C@H]2[C@@H](CO)N3C(=O)CN(C(=O)Cc4ccccc4)C[C@H]23)cc1` under target or system Protein AF-9 (Homo sapiens) (UniProt P42568): inhibition reported as -0.595

For the compound `COc1ccc2c3c(n(C)c2c1)[C@@H](CO)N(Cc1ccccc1)CC31CN(C(=O)C2CC2)C1` , the measured inhibition on Protein AF-9 (Homo sapiens) (UniProt P42568) was 2.25

----------
biological target: Protein AF-9 (Homo sapiens); assay: MLL-AF4/AF9 protein interaction blockers – biochemical, AlphaScreen, biotin-AF4 peptide, FLAG-AF9, single point, primary screen (AID 651704); conditions: biotin-AF4 peptide binding to FLAG-AF9, at 10 µM, active compounds read high;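 note: 0% = plate neutral control median and 100% = total signal loss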
Screen size: about 350,000 compounds; about 1,600 (0.46%) were called active. Shown is part of a subset that was picked to be rich in actives.
recorded.endpoint: inhibition (%)
Just the number in %, nothing appended.

Solved cases (8 shown):
smiles_representation=Cc1c(C)n(Cc2ccc(Cl)cc2)c2ccc(C(=O)NCCCN3CCOCC3)cc12 quantity_unit=% measured=26.6
smiles_representation=COc1ccccc1-c1cnc2c(c1)C(=O)N([C@H](C)CO)C[C@H](C)[C@@H](CN(C)CC1CCOCC1)O2 quantity_unit=% measured=-1.31
smiles_representation=CC(=O)c1cccc(-c2cnc3c(NC=O)cc(-c4cccc(C(=O)N(C)C)c4)cn23)c1 quantity_unit=% measured=-1.2
smiles_representation=COc1ccc2c3c(n(C)c2c1)[C@H](CO)N(C(C)=O)CC31CN(C(=O)c2cnccn2)C1 quantity_unit=% measured=-3.28
smiles_representation=CC(C)C[C@@H](CO)N1CCN(Cc2ccc(O)cc2)CCC1=O quantity_unit=% measured=-1.96
smiles_representation=COc1ccc(NS(=O)(=O)c2cc3c(cc2C)N(C(C)=O)CCO3)cc1 quantity_unit=% measured=52.8
smiles_representation=C[C@@H]1CCCCO[C@H](CN(C)C(=O)C2CCCCC2)[C@@H](C)CN([C@@H](C)CO)C(=O)c2cc(NC(=O)Nc3ccccc3)ccc2O1 quantity_unit=% measured=5.54
smiles_representation=C/C(=N\NC(=O)c1ccccc1F)c1ccccn1 quantity_unit=% measured=-1.33

Noted for `C[C@H](CO)N1C[C@H](C)[C@@H](CN(C)Cc2ccc3c(c2)OCO3)OCCCC[C@H](C)Oc2ccc(NC(=O)Nc3ccc(C(F)(F)F)cc3)cc2C1=O` : its inhibition reads 4.81

So for `COc1ccc(Cn2c(=S)[nH]c3cc(C(=O)NCCCN4CCOCC4)ccc3c2=O)cc1` , the logged inhibition turned out to be -9.96

The reported value for `O=C(NCCCN1CCOCC1)c1ccc([N+](=O)[O-])cc1[N+](=O)[O-]` in terms of inhibition is -2.14

Summary for this compound, `Cc1ccccc1S(=O)(=O)N1CC(=O)N2[C@H](CO)[C@@H](c3ccc(C#Cc4ccccc4)cc3)[C@H]2C1` : inhibition is -0.846

Noted for `O=C(Nc1ccccc1)N1CC(=O)N2[C@@H](CO)[C@H](c3ccc(C#CC4CCCC4)cc3)[C@@H]2C1` : its inhibition reads 7.61

The compound identified as `COc1ccc(CN(C)C[C@@H]2OCCCC[C@H](C)Oc3ccc(NS(=O)(=O)c4cccs4)cc3C(=O)N([C@H](C)CO)C[C@@H]2C)cc1` registered its inhibition at 5.32

// inhibition value for `CCN(CC)CCOc1ccc2c(c1)C(=NNC(=O)c1ccccn1)c1cc(OCCN(CC)CC)ccc1-2` : 56.9

The recorded inhibition for entry `COc1ccc2c3c(n(C)c2c1)[C@H](CO)N(Cc1cccnc1)CC31CCN(Cc2cccnc2)CC1` equals 13.7

response.value for `CC(C)C[C@@H](COCc1ccc(Cl)cc1)N1CCN(C(=O)c2ccc(Cl)cc2Cl)CCC1=O` (field: inhibition) = 1.49
